Recorded values, source ChEMBL document CHEMBL3864152.

ASSAY PROTOCOL: AUC in rat at 0.5 mg/kg, iv
Assay type: ADME, organism-based
CONDITION SUMMARY: in vivo
OBSERVABLE: AUC
# output: numeric value plus its unit

QUERY: Would you mind telling me what AUC value was observed for C[C@H]1[C@H](C)CC[C@]2(C(=O)O)CC[C@]3(C)C(=CC[C@@H]4[C@@]5(C)CC[C@H](O)C(C)(C)[C@@H]5CC[C@]43C)[C@H]12 ?
RESULT: 114 ng·h/mL
